target: CDK6/Cyclin D1 (Homo sapiens (Human), UniProt Q00534); assay: biochemical; details: CDK6_Ki (nM), non-phosphorylated CDK6/Cyclin D1, 2 mM ATP, Morrison fit
Sequence (Q00534 whole entry): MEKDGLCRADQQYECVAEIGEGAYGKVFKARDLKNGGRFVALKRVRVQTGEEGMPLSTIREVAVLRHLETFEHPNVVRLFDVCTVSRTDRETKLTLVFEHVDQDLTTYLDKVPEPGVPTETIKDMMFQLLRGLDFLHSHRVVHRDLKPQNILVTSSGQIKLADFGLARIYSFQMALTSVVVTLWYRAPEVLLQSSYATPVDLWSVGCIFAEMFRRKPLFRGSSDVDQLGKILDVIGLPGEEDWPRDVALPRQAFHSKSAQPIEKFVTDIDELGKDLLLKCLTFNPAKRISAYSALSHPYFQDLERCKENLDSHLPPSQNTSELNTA
Sequence (P24385 whole entry partner): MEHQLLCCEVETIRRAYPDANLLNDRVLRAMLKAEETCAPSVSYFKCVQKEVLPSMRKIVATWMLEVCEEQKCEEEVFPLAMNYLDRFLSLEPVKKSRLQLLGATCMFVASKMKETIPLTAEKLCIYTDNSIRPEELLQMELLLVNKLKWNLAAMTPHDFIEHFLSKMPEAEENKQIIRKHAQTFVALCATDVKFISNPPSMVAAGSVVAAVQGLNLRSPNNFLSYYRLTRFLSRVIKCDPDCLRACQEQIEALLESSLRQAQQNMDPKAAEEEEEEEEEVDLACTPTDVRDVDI
READOUT: log10 Ki (log10 of the value in nM)
Please interpret these as log10 of Ki where Ki is in nM.

q: Complete the entry with log10 Ki for Cc1cc2cnc(NC3CCN(S(C)(=O)=O)CC3)nc2n([C@@H]2COC[C@@]2(C)O)c1=O (single isomer, unassigned)
a: 0.68

q: Specify reported log10 Ki for the compound shown: "CC(C)(O)CS(=O)(=O)N1CCC(Nc2ncc3ccc(=O)n([C@@H]4CCC[C@@]4(C)O)c3n2)CC1"
a: 0.30

q: Quick one: give measured log10 Ki for COCCS(=O)(=O)N1CCC(Nc2ncc3ccc(=O)n([C@@H]4CCCC4(C)O)c3n2)CC1 (single isomer, unassigned)
a: 0.04

q: Name the recorded log10 Ki of the compound listed here: CNS(=O)(=O)N1CCC(Nc2ncc3ccc(=O)n([C@@H]4C[C@@H](O)CC[C@H]4F)c3n2)CC1 (single isomer, unassigned)
a: 1.26

q: Using the record for "CS(=O)(=O)N1CCC(Nc2ncc3cc(C(F)(F)C(=O)O)c(=O)n(C4CCCC4)c3n2)CC1" , state its measured log10 Ki.
a: -0.06

Lab note: next compound to report on.
q: # return recorded log10 Ki for entry Cc1cc2cnc(NC3CCN(S(=O)(=O)C4CC4)CC3)nc2n([C@@H]2CCC[C@@]2(C)O)c1=O (single isomer, unassigned)
a: 0.09
